Hello, the source for this data is paper PMC11480844, in case you need it.

B1: H2-Kb / B14 (parent)
chain 1: GEQVEQRPPHLSVREGDSAVIICTYTDPNSYYFFWYKQEPGAGLQLLMKVFSSTEINEGQGFTVLLNKKDKQLSLNLTAAHPGDSAVYFCAVSARGNMGYKLTFGTGTSLLVDP
chain 2: GGIITQTPKFLIGQEGQKLTLKCQQNFNHDTMYWYRQDSGKGLRLIYYSITENDLQKGDLSEGYDASREKKSSFSLTVTSAQKNEMAVFLCASSMGQGASDYTFGSGTRLLVI
chain 3: not shown
chain 4: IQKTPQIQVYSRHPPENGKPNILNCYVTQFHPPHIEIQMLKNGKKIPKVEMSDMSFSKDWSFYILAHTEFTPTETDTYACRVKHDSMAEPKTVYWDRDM
chain 5: SIINFEKL

Variants of: B1
Experiment: % of reporter cells activated (NFAT-GFP), raw; further: test concentration or dose not given here
Conditions: with B14; scale: % of reporter cells activated
measured.metric: ratio to parent

> print(dat)
   mutation.key  experimental.value
1   chain 5 F5T               0.609
2   chain 5 K7S                1.09
3   chain 5 S1P               0.751
4   chain 5 K7V                1.11
5   chain 5 L8P                1.33

So, chain 5 F5Y ? Its ratio to parent was 0.578

Summary for this variant, chain 5 S1A : ratio to parent is 0.942

Kindly note the recorded ratio to parent for chain 5 L8A , which is 0.609

Just so you know, measured ratio to parent for chain 5 L8S came out at 0.716

Summary for this variant, chain 5 L8W : ratio to parent is 1.11

Entry under test: chain 5 E6N . Its ratio to parent was 1.07
